Task for the reader: assign each of the following molecules its reported Percent Effect.
Species: Homo sapiens
Test: To identify inhibition of the IFN signalling (Jak-Stat) pathway via expression of an eGFP reporter gene under the control of an IFN-stimulated response element (ISRE) containing MxA promoter.
Format: functional
Parameters: scale not given: direction of the effect not stated beside the values
Settings: 30 µM
One number for each entry, in %.

INSERT INTO assay_data (molecule, recorded_metric, value_units, observed_result) VALUES
  ('O=C(c1n[nH]c2ccccc12)N1CCCC1c1noc(C2CC2)n1 (configuration not stated)', 'Percent Effect', '%', -4.43),
  ('Cc1nc(C)n(C2CCCN(C(=O)c3cc(C(N)=O)cs3)C2)n1 (configuration not stated)', 'Percent Effect', '%', -7.04),
  ('COc1cccc(CNC(=O)C(c2cccc(F)c2)N2CCOCC2)c1 (configuration not stated)', 'Percent Effect', '%', 5.78),
  ('Fc1cnc(N2C[C@H]3CCC[C@@]3(COc3ccccn3)C2)nc1', 'Percent Effect', '%', -10.5),
  ('O=C(NCc1ccccn1)[C@H]1COC[C@H]2CN(Cc3ccoc3)C[C@H]21', 'Percent Effect', '%', -4.49),
  ('Cc1cc(C(=O)N2CC[C@@H]3CN(c4ncccn4)CCO[C@@H]3C2)c(C)o1', 'Percent Effect', '%', -4.39),
  ('CCc1nc(CC(=O)N2CCn3c(nnc3C(F)(F)F)C2)cs1', 'Percent Effect', '%', -25.8),
  ('CCN1CCN(C(=O)CCc2c(C)noc2Cl)CC1', 'Percent Effect', '%', -6.25);

Please give Percent Effect for each item listed below.
1. CC(COc1ccccc1)NCc1nc(-c2cccnc2)no1 (configuration not stated)
2. O=C(CN1CCCC1Cn1cncn1)NCCOc1cccc(F)c1 (configuration not stated)
3. Cc1noc(C)c1-c1cncc(C2CCCN2Cc2cncnc2)n1 (configuration not stated)
4. CC(C)NC(=O)N1CCc2nc(C(=O)NCc3ccccc3)sc2CC1

Output:
1: 5.92; 2: -2.63; 3: 18.2; 4: 13.3

Please give Percent Effect for each item listed below.
1. Cc1ccc(C2CSCCN2C(=O)C2=CCCC2)o1 (configuration not stated)
2. CCCNC(=O)c1cc2c(nc1O)CCC(C)C2 (configuration not stated)
3. COc1cc(C(=O)N(Cc2ccc(F)cc2)C2CC2)cc2c1OCCO2
4. Cc1nc(CN2CCCN(C(=O)c3ccccn3)CC2)oc1C

Output:
[-24, -2.51, 36.9, 33]

Please give Percent Effect for each item listed below.
1. COC(=O)C(C)(C)NC(=O)C1CC(=O)N(C)C1 (configuration not stated)
2. CCCS(=O)(=O)N1CCC(NC(=O)c2cc(C)c(CC)s2)CC1
3. Cc1ccsc1[C@@H]1CCN(C(=O)c2cc3ccccc3[nH]2)C[C@H]1O
4. Cc1cccc(-c2nc(CN(Cc3cccs3)CC3CCCO3)no2)c1 (configuration not stated)
5. O=C(c1cnccn1)N1CCN2C[C@H](OCc3ccccn3)C[C@H]2C1
6. c1cc(CNCc2ccnc(N3CCOCC3)c2)c2c(c1)OCCO2
7. O=c1c2cnc(N3CCCCC3)nc2ccn1-c1ccccc1
8. c1ccc(CC2CCN(Cc3ccnc(-c4cccnc4)n3)CC2)cc1

Output:
-3.68
13.4
12.8
25.8
-9.74
15.7
8.11
18.1

Please give Percent Effect for each item listed below.
1. Cc1ccc2c(ccn2CC(=O)NC[C@@H]2CCCN3CCCC[C@H]23)c1
2. O=C(COc1cccc2c1CCC2=O)NCc1ccccc1F
3. CS(=O)(=O)NCc1n[nH]c2c1CCN(C(=O)c1ccsc1)C2
4. Cn1cnnc1C1CCCN(C(=O)c2ccc3c(c2)OCCCO3)C1 (configuration not stated)
5. CC(NC(=O)c1cccs1)C(=O)NCc1cccnc1N1CCCCC1 (configuration not stated)
6. CC(=O)N(Cc1noc(C2CC2)n1)C1CCN(Cc2nccn2C)C1 (configuration not stated)
7. CC(C)CCn1c(=O)nc2n1C(=O)N(c1ccc(F)cc1)C2
8. CC(C)(C)c1nc(CN2CCC(c3nc4cc(Cl)ccc4o3)CC2)no1

Output:
1. -4.16
2. 11
3. 5.55
4. -4.88
5. 10.2
6. 11.5
7. 13.5
8. 10.2

Please give Percent Effect for each item listed below.
1. Cc1cccc(COC[C@H]2CC[C@H]3[C@H](CCN3C(=O)CC3CC3)O2)n1
2. CCC(O)CNC(=O)c1coc(COc2ccc3sc(C)nc3c2)n1 (configuration not stated)
3. CCC(C)c1noc(C2CCN(C(=O)c3cccnc3)CC2)n1 (configuration not stated)
4. O=C(Cc1ccc2c(c1)CCO2)N1CCCCC1Cn1cccn1 (configuration not stated)
5. COc1cccc(N2CCN(CC(O)c3cc(C)sc3C)CC2)c1 (configuration not stated)
6. CCN1CC2(CC1=O)CN(Cc1ccco1)CCN(C(=O)N(C)C)C2 (configuration not stated)
7. CNC(=O)c1ccc(CN2CCC(N(C)Cc3noc(C)n3)C2)cc1 (configuration not stated)

Output:
1: 15.9; 2: 50; 3: -14.3; 4: 7.18; 5: 19.5; 6: -2.04; 7: 22.1

Please give Percent Effect for each item listed below.
1. CC(Cn1ccnc1)NC(=O)NCCNC(=O)C(C)C (configuration not stated)
2. O=C(NCC(Cc1cccc(F)c1)N1CCCC1=O)c1ccccc1 (configuration not stated)
3. CCS(=O)(=O)N1Cc2nccn2CC(Cn2nc(C)nc2C)C1 (configuration not stated)
4. COc1cccc(C(=O)N2CCCC(C(=O)CCc3ccccc3)C2)c1 (configuration not stated)
5. Cc1ccc(NC(=O)NCCCc2n[nH]c(N)c2C#N)cc1
6. COC(CNC(=O)N1CCC(n2cncn2)CC1)c1ccccc1 (configuration not stated)
7. O=C(COC[C@H]1CC[C@H]2[C@H](CCN2c2ncccn2)O1)N1CCCC1
8. Cc1cn2nc(N3CCCN(Cc4noc(C)n4)CC3)sc2n1

Output:
[31.2, 6.32, -17.4, 23.4, 13.3, 0.165, 13.1, 0.85]

---

Species on record: Homo sapiens
Test: To identify inhibition of the IFN signalling (Jak-Stat) pathway via expression of an eGFP reporter gene under the control of an IFN-stimulated response element (ISRE) containing MxA promoter.
Assay type: functional
Parameters: scale not given: direction of the effect not stated beside the values
Details: 30 µM
Recorded Metric: Percent Effect (%)
One number for each entry, in %.

INSERT INTO assay_data (compound, value_units, observed_result) VALUES
  ('Cc1cc(C)n(CC2CCCN2C(=O)CCCc2ccccn2)n1 (configuration not stated)', '%', 16.9);

Please give Percent Effect for each item listed below.
1. Cc1ccc(-c2ncc(C(=O)NCCNc3ncccn3)s2)c(C)c1
2. Cc1nc(C)n(CC2CCCN2CC(=O)Nc2cc(C(C)C)no2)n1 (configuration not stated)
3. CC(C)COCC(NC(=O)c1cc[nH]n1)c1ccco1 (configuration not stated)
4. COCCNc1nc2c(c(NCc3ccncc3)n1)CCNCC2
5. CCC(C)(NCC(=O)N(c1ccccc1)C(C)C)c1nc(C)cs1 (configuration not stated)

Output:
11.8
22.5
19.5
5.66
-1.37

---

Task for the reader: assign each of the following molecules its reported Percent Effect.
Molecular target: Chromo domain-containing protein 1 (Saccharomyces cerevisiae (strain ATCC 204508 / S288c) (Baker's yeast)) (UniProt P32657)
Sequence (P32657 whole entry, the tested form may be a part): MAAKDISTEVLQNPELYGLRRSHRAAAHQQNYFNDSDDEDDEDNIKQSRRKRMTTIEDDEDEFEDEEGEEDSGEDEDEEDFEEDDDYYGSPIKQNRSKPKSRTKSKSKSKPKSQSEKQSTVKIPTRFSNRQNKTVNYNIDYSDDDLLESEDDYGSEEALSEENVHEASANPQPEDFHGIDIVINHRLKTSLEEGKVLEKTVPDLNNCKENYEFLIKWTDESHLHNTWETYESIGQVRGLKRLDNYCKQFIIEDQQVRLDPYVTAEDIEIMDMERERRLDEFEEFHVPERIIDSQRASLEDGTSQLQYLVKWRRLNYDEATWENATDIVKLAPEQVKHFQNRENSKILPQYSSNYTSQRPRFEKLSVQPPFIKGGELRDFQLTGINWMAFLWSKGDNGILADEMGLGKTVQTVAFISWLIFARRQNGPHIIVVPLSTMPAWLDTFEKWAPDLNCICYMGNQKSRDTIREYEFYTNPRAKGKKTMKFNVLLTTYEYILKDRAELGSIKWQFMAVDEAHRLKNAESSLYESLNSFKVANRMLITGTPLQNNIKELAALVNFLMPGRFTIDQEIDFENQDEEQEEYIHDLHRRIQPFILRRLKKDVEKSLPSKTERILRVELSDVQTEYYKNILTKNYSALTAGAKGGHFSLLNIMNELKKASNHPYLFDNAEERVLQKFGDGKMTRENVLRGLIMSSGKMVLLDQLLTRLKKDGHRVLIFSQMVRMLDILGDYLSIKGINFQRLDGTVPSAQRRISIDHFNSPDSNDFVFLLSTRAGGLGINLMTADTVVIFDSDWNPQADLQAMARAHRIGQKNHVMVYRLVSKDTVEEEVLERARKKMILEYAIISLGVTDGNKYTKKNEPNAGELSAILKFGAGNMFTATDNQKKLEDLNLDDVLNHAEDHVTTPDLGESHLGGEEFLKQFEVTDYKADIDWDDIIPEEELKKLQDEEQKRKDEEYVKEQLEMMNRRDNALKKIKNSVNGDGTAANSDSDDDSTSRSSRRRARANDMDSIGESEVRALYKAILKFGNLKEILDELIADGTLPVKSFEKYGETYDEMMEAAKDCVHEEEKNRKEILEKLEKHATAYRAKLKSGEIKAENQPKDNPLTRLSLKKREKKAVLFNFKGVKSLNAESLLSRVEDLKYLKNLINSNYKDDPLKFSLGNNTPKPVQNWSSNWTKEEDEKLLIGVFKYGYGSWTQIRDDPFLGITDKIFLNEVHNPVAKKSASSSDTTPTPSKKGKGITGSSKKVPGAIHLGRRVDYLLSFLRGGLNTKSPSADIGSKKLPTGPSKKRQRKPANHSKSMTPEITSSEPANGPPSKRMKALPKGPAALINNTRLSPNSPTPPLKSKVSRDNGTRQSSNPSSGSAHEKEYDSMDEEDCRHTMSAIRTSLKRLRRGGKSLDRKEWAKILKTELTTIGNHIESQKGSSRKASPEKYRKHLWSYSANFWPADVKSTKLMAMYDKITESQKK
Assay: ScCHD-1 Enzyme Inhibition Assay; also: in the data most compounds retested in dose-response had high values
Assay type: functional
Parameters: scale not given: direction of the effect not stated beside the values
Conditions: 30 µM
One number for each entry, in %.

Guide cases for Percent Effect, answers given:
INSERT INTO results (molecule, recorded_metric, value_units, observed_result) VALUES
  ('Cc1cccc(-n2cc(C(=O)N3CCn4c(C)nnc4C3)nn2)c1', 'Percent Effect', '%', 0.00385),
  ('CS(=O)(=O)NCc1nnc2n1CCN(CC1CC1)C2', 'Percent Effect', '%', -2.16),
  ('O=C(CCc1nc2cccnc2[nH]1)NCc1ccc2c(c1)OCO2', 'Percent Effect', '%', -10);

Please give Percent Effect for each item listed below.
1. COc1ccc(CNC(C)c2ccc3[nH]c(=O)[nH]c3c2)cc1 (configuration not stated)
2. CC1c2ncc(CN3CCN(C)CC3)n2CCN1Cc1cccnc1 (configuration not stated)
3. CCc1nc(CN2CCCN(C(=O)C(C)COC)CC2)cs1 (configuration not stated)
4. Cc1cnc(CN2CCCC(c3cc(C(N)=O)[nH]n3)C2)o1 (configuration not stated)
5. CS(=O)(=O)N1CCC(C(=O)NCCNc2ncccn2)CC1
6. Cc1ccccc1CNc1nc(O)cc(C2CC(=O)N(C)C2)n1 (configuration not stated)
7. CCOc1ccc(N2CCCN=C2NC(=O)c2ccccc2C)cc1

Output:
[-9.21, -7.93, -10.9, -9.23, -3.22, -10.8, 106]

Please give Percent Effect for each item listed below.
1. CN1CCC(Oc2ccc(NC(=O)c3ccccc3Br)cc2)CC1
2. CN(C)S(=O)(=O)N1CCC2(CCCN(Cc3ccc(F)cc3)C2=O)C1 (configuration not stated)

Output:
1: -4.57; 2: -6.71
